Target: T1, J1 DSL-EGF3 soluble recombinant protein (human Jagged 1 amino acids 185-335) (human, UniProt P78504 185-335)
T1 construct: biotinylated in the CD46 ELISA; also called J1-DE3; DSL+EGF1-3
T1 sequence (P78504 185-335, form in doubt): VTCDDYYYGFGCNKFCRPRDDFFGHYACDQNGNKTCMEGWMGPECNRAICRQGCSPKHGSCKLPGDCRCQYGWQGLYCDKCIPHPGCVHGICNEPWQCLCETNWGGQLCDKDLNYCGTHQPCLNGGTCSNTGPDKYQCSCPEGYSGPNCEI
Assay: affinity to the immunogen J1-DE3; method not stated

| BINDER | Kd, nM |
| --- | --- |
| J1-183D variant 14 (antibody, human IgG1, V domains shown, human IgG1; also called J1-183DV14; V14) VH: QVQLVQSGAELKKPGASVKVSCKVSGYAFTDYAIHWIRQAPGQGLEWMGIINTYYGDSKYAQKFQGRVTMTVDTSTSTAYMELSSLRSEDTAVYYCARGYDGFAYWGQGTLVTVSS VL: DIQMTQSPSSLSASVGDRVTITCRTSENIYSYLTWYQQKPGKAPKLLIYHAKILDSGVPSRFSGSGSGTDFTLTISSLQPEDFATYYCQHHYDIPWTFGGGTKLEIKR | 3.91 |
| J1-65D variant 13 (antibody, human IgG1, V domains shown, human IgG1; also called J1-65DV13; V13) VH: QVQLVQSGAELKKPGSSVKVSCKASGYTFTDYEMHWVRQAPGQGLEWMGAIQPGGGGTAYNQKFKGRVTLTADKSTSTAYMELSSLRSEDTAVYYCTRRGYDDYPFAYWGQGTLVTVSS VL: DIQMTQSPSSLSASVGDRVTITCRASQGIHNYLAWYQQKPGKAPKLLIYNAKTLADAVPSRFSGSGSGTDYTLTISSLQPEDFATYYCQQFWSAPWTFGQGTKLEIK | 14.2 |
